Values compiled from PubChem BioAssay AID1445.

- assayed system: Aminopeptidase N (Plasmodium falciparum (isolate 3D7)) (UniProt O96935)
- Sequence (O96935 whole entry, looked up): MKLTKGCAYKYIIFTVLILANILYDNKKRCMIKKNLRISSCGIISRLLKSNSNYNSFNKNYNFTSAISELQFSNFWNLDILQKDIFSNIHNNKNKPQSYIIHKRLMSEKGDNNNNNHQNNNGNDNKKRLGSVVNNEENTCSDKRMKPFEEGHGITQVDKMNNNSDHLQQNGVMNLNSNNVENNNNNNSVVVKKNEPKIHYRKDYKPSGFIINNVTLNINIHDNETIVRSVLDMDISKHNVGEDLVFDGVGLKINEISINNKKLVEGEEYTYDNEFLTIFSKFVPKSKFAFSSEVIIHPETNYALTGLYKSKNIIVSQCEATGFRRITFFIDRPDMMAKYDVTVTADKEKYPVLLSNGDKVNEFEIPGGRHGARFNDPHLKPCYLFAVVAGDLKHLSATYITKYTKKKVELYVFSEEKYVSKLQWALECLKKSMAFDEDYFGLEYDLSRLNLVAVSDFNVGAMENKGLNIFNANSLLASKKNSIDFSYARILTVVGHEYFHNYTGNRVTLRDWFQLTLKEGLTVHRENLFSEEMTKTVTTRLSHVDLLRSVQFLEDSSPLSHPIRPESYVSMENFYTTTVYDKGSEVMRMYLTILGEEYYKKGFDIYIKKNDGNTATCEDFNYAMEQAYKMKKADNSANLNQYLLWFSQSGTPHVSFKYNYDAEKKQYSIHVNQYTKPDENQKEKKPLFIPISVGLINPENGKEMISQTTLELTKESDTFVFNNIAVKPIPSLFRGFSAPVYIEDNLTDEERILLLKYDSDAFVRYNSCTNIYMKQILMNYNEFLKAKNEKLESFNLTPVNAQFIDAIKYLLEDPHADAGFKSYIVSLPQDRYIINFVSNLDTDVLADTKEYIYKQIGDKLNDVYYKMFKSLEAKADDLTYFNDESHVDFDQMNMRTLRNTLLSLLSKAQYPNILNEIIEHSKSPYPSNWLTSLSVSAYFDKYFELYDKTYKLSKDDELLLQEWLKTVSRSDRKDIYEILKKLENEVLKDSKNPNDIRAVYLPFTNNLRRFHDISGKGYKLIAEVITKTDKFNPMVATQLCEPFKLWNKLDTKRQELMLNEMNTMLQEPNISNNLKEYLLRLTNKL
- protocol description: malaria alanyl aminopeptidase activity blockers – biochemical, fluorogenic H-Leu-NHMec substrate, 1536-well (AID 1445);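 further: plate controls were DMSO full reaction for no effect and no enzyme background for full effect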
- cond: recombinant M1AAP, H-Leu-NHMec fluorogenic kinetic assay; at 30 µM, stronger effect = higher value unless noted
Screen size: about 220,000 compounds; about 910 (0.41%) were called active. Many of the other results were omitted from the sample, so actives are more common in it than they were. Potency and affinity values are given separately.

# compound, inhibition, %
data = [
    ("CCCc1c(O)nc(SCCN(CC)CC)n(C(=O)c2ccccc2)c1=O", 6.49),
    ("Cc1ccc(C)c(NC(=O)c2ccc3c(c2)N(Cc2ccc(F)cc2)C(=O)CS3=O)c1 (stereo unspecified)", -7.55),
    ("O=c1c2c(nc3nc(NCc4cccc(Cl)c4)[nH]n13)CCC2", 9.8),
    ("O=C(Nc1ccccc1Cl)c1ccc2c(c1)N(Cc1ccc(F)cc1)C(=O)CS2=O (stereo unspecified)", 3.24),
    ("O=C(CNC(=O)c1ccncc1)N/N=C/c1ccc(O)cc1O", 3.55),
    ("NC(=O)c1c(NC(=O)COC(=O)c2ccc(S(=O)(=O)Nc3ccccc3)cc2)sc2c1CCCC2", 6.65),
    ("COC(=O)c1ccc(C)c(NS(=O)(=O)c2ccc3c(c2)OCCO3)c1", 9.88),
    ("CCOCCCn1c(=S)[nH]c2cc(C(=O)NCCCN(CC)CC)ccc2c1=O", 12.3),
    ("O=C(NCc1ccco1)c1ccc(Cl)c(S(=O)(=O)N2CCOCC2)c1", 0.38),
    ("CC1=C(CCN2CCN(C(C)C)C(CCO)C2)C(C)(C)CCC1 (stereo unspecified)", 2.23),
    ("COC(=O)C(C(C)=O)C1=C/C(=N\\S(=O)(=O)c2ccc(C)cc2)c2ccccc2C1=O (stereo unspecified)", 12.9),
    ("COc1ccc(-c2[nH]c(-c3ccc(C)cc3)nc2SCC(=O)NC2CCCC2)cc1", 1.57),
    ("CCOC(=O)C1ON2CCCCC2C1(O)C(F)(F)F (stereo unspecified)", 4.11),
    ("Cc1ccc(OCC(=O)Nc2cccc(-c3nnc(-c4ccccc4)o3)c2)c(C)c1", 2.43),
    ("COc1ccc(-c2nc3n(n2)C(c2ccccc2Cl)C(C(N)=O)=C(C)N3)cc1 (stereo unspecified)", 9.41),
    ("COc1ccc(O)c(C2NC(CC(C)C)(C(=O)O)C3C(=O)N(Cc4ccccc4)C(=O)C23)c1 (stereo unspecified)", 13.5),
    ("O=C(COC(=O)CCOc1ccccc1)NCc1ccco1", 12.3),
    ("Cc1cc(C)c2[nH]c(=O)c(C(c3nnnn3C(C)(C)C)N(Cc3ccco3)CC3CCCO3)cc2c1 (stereo unspecified)", 11.4),
    ("Cc1cc(C(=O)OCn2nnc3ccccc3c2=O)c(C)n1-c1ccccc1", 0.48),
    ("O=C(COc1ccccc1)NNC(=O)COc1ccc([N+](=O)[O-])cc1", 0.69),
    ("Nc1cc(N)nc(SCc2cccnc2)n1", -6.1),
]

----------
Reported inhibition is given for each of the following compounds.
- assayed system: Aminopeptidase N (Plasmodium falciparum (isolate 3D7)) (UniProt O96935)
- protocol description: malaria alanyl aminopeptidase activity blockers – biochemical, fluorogenic H-Leu-NHMec substrate, 1536-well (AID 1445);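 further: plate controls were DMSO full reaction for no effect and no enzyme background for full effect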
- cond: recombinant M1AAP, H-Leu-NHMec fluorogenic kinetic assay; at 30 µM, stronger effect = higher value unless noted
Screen size: about 220,000 compounds; about 910 (0.41%) were called active. This is one part of a sample in which actives are shown more often than they occur. Potency and affinity values are given separately.
readout label: inhibition (%)

# compound, readout label, recorded measurement
measured = [
    ("Cc1cccc(N2CCN(Cc3cnc(Cl)s3)CC2C)c1 (stereo unspecified)", "inhibition", 3.39),
    ("O=C(c1cnn(-c2ccccc2)c1-n1cccc1)N1CCN(C2CCCCC2)CC1", "inhibition", 2.13),
    ("Cn1c(SCc2ccccc2)nc2ccsc2c1=O", "inhibition", 2.71),
    ("Cc1cccc(OCC(=O)NCC(=O)N/N=C/c2cccnc2)c1", "inhibition", 8.13),
    ("COc1ccccc1NC(=O)CN1CCN(C(=O)c2ccco2)CC1", "inhibition", 1.53),
    ("CCOC(=O)N1CCN(C(=O)c2cnn3ccccc23)CC1", "inhibition", 10.3),
]
